Biological target: MICA*004 on HCC1534 cells (human, UniProt Q29983 24-383); note: test concentration or dose not given here
Assay: cell-based or functional assay
readoutName: % Inhibition (%)
Value expressed in %; do not type the unit.

13A9 (antibody, V domains shown, mouse variable domains) VH: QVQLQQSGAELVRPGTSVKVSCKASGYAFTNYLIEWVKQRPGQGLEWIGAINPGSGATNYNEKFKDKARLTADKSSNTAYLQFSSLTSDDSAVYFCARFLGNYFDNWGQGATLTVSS VL: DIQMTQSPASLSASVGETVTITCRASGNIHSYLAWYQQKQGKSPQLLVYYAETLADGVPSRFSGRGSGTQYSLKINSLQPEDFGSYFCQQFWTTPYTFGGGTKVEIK    21
15F11v1 (antibody, IgG1, V domains shown, humanized variant of 15F11) VH: EVQLVQSGAEVKKPGASVKVSCKASGYAFTSNNIYWVRQAPGQGLEWIGYIDPYIGRIIYNQQFKDRVTITADTSTSTAYLELSSLRSEDTAVYYCSRSGERSNFDYWGQGTLVTVSS VL: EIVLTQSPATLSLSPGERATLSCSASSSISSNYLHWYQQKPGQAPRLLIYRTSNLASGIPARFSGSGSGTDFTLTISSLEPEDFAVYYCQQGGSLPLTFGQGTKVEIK    3

In the following, a different binder is considered.
% Inhibition reported for this binder 15F11 (antibody, V domains shown, mouse variable domains) VH: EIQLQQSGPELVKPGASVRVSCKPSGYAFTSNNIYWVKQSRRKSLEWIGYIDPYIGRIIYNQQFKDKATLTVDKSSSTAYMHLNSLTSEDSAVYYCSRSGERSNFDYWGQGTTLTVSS VL: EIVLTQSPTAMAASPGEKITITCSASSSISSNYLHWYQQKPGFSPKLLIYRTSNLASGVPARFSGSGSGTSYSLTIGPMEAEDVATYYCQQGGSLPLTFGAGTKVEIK : 54
